Tested on: HCT-15 colon
Experiment: NCI-60 one-dose screen, 48 h
Conditions: 10 µM unless noted
Compounds without any hit were thinned out: in the full panel of roughly 83,000, 20% have a hit. The source made the active and inactive calls. The calls were made as follows: active = growth percent below 10; inactive = the rest.
Possible outcomes: active, inactive

[
  {
    "compound": "CC(O)c1ncc(/C=C2\\SC(=S)N(Cc3ccccc3)C2=O)s1 (stereo not given)",
    "category.label": "inactive"
  },
  {
    "compound": "COc1cc(C(=O)/C=C/c2c(-c3cccs3)nc3ccccn23)cc(OC)c1OC",
    "category.label": "active"
  },
  {
    "compound": "COc1cc(-c2nc(NC(C)=O)sc2-c2ccnc(NCCNS(=O)(=O)c3ccccc3)n2)ccc1Cl",
    "category.label": "inactive"
  },
  {
    "compound": "C(/C=C/c1ccccc1)=Nc1ccc(CCc2ccc(N=C/C=C/c3ccccc3)cc2)cc1",
    "category.label": "inactive"
  },
  {
    "compound": "CCN1CCN(CC(=O)Nc2nc3ccc(NCc4ccc(Br)cc4)cc3s2)CC1",
    "category.label": "active"
  },
  {
    "compound": "COc1ccc(NC(=O)c2cccc(C3CCc4c(cc(OC)c(OC)c4OC)O3)c2)cc1 (stereo not given)",
    "category.label": "inactive"
  },
  {
    "compound": "O=C(c1ccc(F)c(Cl)c1)N1c2ccccc2Sc2ccccc21",
    "category.label": "inactive"
  },
  {
    "compound": "C=C1C(=O)O[C@H]2[C@H]1CC/C(COC(=O)NCCCCCCCCNC(=O)OC/C1=C/CC[C@@]3(C)O[C@H]3[C@H]3OC(=O)C(=C)[C@@H]3CC1)=C\\CC[C@@]1(C)O[C@@H]21",
    "category.label": "active"
  },
  {
    "compound": "Cc1c2ccccc2nc2c1ccc1cccnc12",
    "category.label": "inactive"
  },
  {
    "compound": "COc1ccc(C(c2cc(OC)c(OC)c(OC)c2)N2CCN(Cc3ccccc3)CC2)cc1 (stereo not given)",
    "category.label": "inactive"
  }
]
